Values were extracted from patent US12534477B2.

- assayNotes: Liver-blood ratio, tissue distribution in rats
- Type: in vivo, SD rats
- conditionParameters: SD, rat, liver, 1 mg/kg, PO 1 mpk, 1.5 h, read-out: Liver tissue concentration
measurementType: concentration at 1.5 h (nM)

Consider the following illustrative entries.
itemSmiles: C[C@H]1CCN1c1nc(N2C[C@@H]3[C@@H](CC(=O)O)[C@@H]3C2)c2ncsc2n1
numericReadout: 2440

itemSmiles: C[C@H]1CCN1c1nc(Nc2ccc(CC(=O)O)cc2)c2ccsc2n1
numericReadout: 2420

I = C[C@H]1CCN1c1nc(N2C[C@@H]3[C@@H](CC(=O)O)[C@@H]3C2)c2ccsc2n1
II = C[C@H]1CCN1c1nc(Nc2ccc(C(=O)O)cc2)c2ccsc2n1
Task: Given the two records I and II , choose the one whose concentration at 1.5 h value is lower. Bench note: the answer is the label of the chosen record.
Output: II

###

- assayNotes: Liver-blood ratio, tissue distribution in rats
- Type: in vivo, SD rats
- conditionParameters: SD, rat, liver/plasma, 1 mg/kg, PO 1 mpk, 2.0 h, read-out: Liver-blood ratio
- Procedure: Tissue distribution of compounds in SD rats was tested. In the experiment, candidate compounds were formulated as clear solutions and administered to rats in a single oral dose (PO, 1 mpk). The vehicle for oral administration was a certain proportion of methylcellulose and Tween 80 in water. […] Drug concentration was analyzed by LC-MS/MS, and pharmacokinetic parameters were calculated by Phoenix WinNonlin software.
measurementType: Kp at 2 h

P = C[C@H]1CCN1c1nc(N2C[C@@H]3[C@@H](CC(=O)O)[C@@H]3C2)c2ncsc2n1
Q = C[C@H]1CCN1c1nc(Nc2ccc(C(=O)O)cc2)c2ccsc2n1
Task: For the pair P and Q , which member has the lower Kp at 2 h number? Mark your answer with the label of the selected entry.
Output: P

###

- assayNotes: Liver-blood ratio, tissue distribution in rats
- Assay type: in vivo, SD rats
- conditionParameters: SD, rat, liver/plasma, 1 mg/kg, PO 1 mpk, 6.0 h, read-out: Liver-blood ratio
measurementType: Kp at 6 h

itemSmiles: C[C@H]1CCN1c1nc(Nc2ccc(CC(=O)O)cc2)c2ccsc2n1
Kp at 6 h: 1.25

P = C[C@H]1CCN1c1nc(N2C[C@@H]3[C@@H](CC(=O)O)[C@@H]3C2)c2ccsc2n1
Q = C[C@H]1CCN1c1nc(Nc2ccc(C(=O)O)cc2)c2ccsc2n1
R = C[C@H]1CCN1c1nc(N2C[C@@H]3[C@@H](CC(=O)O)[C@@H]3C2)c2ncsc2n1
Task: Arrange items by their Kp at 6 h values in increasing order. Sort the labels as requested; that list is your answer.
Output: R, P, Q
(R: 0.549, P: 1.22, Q: 4.39)

###

- assayNotes: Pharmacokinetic evaluation in SD rats
- Assay type: in vivo
- conditionParameters: rat, plasma, IV 1 mpk, PO 3 mpk, read-out: Bioavailability F
measurementType: bioavailability (%)

A = C[C@H]1CCN1c1nc(N2CC3(C[C@@H]3C(=O)O)C2)c2c(n1)C(F)(F)CC2
B = C[C@H]1CCN1c1nc(N2CC3(C[C@H]3C(=O)O)C2)c2c(n1)C(F)(F)CC2
Task: Lab note: record which item had the higher bioavailability, A or B . Indicate which entry you chose by stating its label.
Output: A

###

- assayNotes: Liver-blood ratio, tissue distribution in rats
- Assay type: in vivo, SD rats
- conditionParameters: SD, rat, brain/plasma, 1 mg/kg, PO 1 mpk, 6.0 h, read-out: Brain-blood ratio
measurementType: Kp at 6 h

itemSmiles: C[C@H]1CCN1c1nc(N2C[C@@H]3[C@@H](CC(=O)O)[C@@H]3C2)c2ccsc2n1
numericReadout: 0.023
--
itemSmiles: C[C@H]1CCN1c1nc(N2C[C@@H]3[C@@H](CC(=O)O)[C@@H]3C2)c2ncsc2n1
numericReadout: 0.02

###

- assayNotes: Liver-blood ratio, tissue distribution in rats
- Assay type: in vivo, SD rats
- conditionParameters: SD, rat, liver, 1 mg/kg, PO 1 mpk, 2.0 h, read-out: Liver tissue concentration
measurementType: concentration at 2 h (µM)

compound: C[C@H]1CCN1c1nc(Nc2ccc(CC(=O)O)cc2)c2ccsc2n1 [WX006]
measurementType: concentration at 2 h
unit: µM
numericReadout: 2.87
--
compound: C[C@H]1CCN1c1nc(Nc2ccc(C(=O)O)cc2)c2ccsc2n1 [WX012]
measurementType: concentration at 2 h
unit: µM
numericReadout: 0.618

P = C[C@H]1CCN1c1nc(N2C[C@@H]3[C@@H](CC(=O)O)[C@@H]3C2)c2ncsc2n1 [WX001]
Q = C[C@H]1CCN1c1nc(N2C[C@@H]3[C@@H](CC(=O)O)[C@@H]3C2)c2ccsc2n1 [WX004]
Task: Compare P and Q and name the one whose reported concentration at 2 h is smaller. Answer by stating the label of the chosen item.
Output: P
(P: 4.27 µM, Q: 6.37 µM)

###

- assayNotes: Liver-blood ratio, tissue distribution in rats
- Format: in vivo, SD rats
- conditionParameters: SD, rat, brain/plasma, 1 mg/kg, PO 1 mpk, 1.5 h, read-out: Brain-blood ratio
measurementType: Kp at 1.5 h

I = C[C@H]1CCN1c1nc(N2C[C@@H]3[C@@H](CC(=O)O)[C@@H]3C2)c2ccsc2n1
II = C[C@H]1CCN1c1nc(N2C[C@@H]3[C@@H](CC(=O)O)[C@@H]3C2)c2ncsc2n1
Task: Kindly identify which of I and II has the larger recorded Kp at 1.5 h value. Which one? Tell me its label.
Output: I

###

- assayNotes: Liver-blood ratio, tissue distribution in rats
- Type: in vivo, SD rats
- conditionParameters: SD, rat, plasma, 1 mg/kg, PO 1 mpk, 1.5 h, read-out: Plasma concentration
measurementType: concentration at 1.5 h (µM)

itemSmiles: C[C@H]1CCN1c1nc(N2C[C@@H]3[C@@H](CC(=O)O)[C@@H]3C2)c2ncsc2n1
measurementType: concentration at 1.5 h
numericReadout: 4.88

a = C[C@H]1CCN1c1nc(N2C[C@@H]3[C@@H](CC(=O)O)[C@@H]3C2)c2ccsc2n1
b = C[C@H]1CCN1c1nc(Nc2ccc(CC(=O)O)cc2)c2ccsc2n1
c = C[C@H]1CCN1c1nc(Nc2ccc(C(=O)O)cc2)c2ccsc2n1
Task: Highest concentration at 1.5 h first, then in falling order down to the smallest. A ranking is expressed here by listing the labels in the requested order.
Output: a, b, c

###

- systemUnderTest: Recombinant Human Ketohexokinase (KHK) (Homo sapiens (Human), UniProt P50053)
- Sequence (P50053 whole entry): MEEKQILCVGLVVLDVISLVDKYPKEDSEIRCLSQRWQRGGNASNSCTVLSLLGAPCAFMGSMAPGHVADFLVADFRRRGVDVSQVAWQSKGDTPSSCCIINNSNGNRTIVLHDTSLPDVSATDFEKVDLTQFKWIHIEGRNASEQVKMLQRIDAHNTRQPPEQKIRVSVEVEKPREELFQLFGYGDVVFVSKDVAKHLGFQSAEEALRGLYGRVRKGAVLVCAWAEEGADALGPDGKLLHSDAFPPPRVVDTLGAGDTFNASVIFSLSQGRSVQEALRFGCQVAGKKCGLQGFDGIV
- assayNotes: Ketohexokinase assay (KHK assay), ADP-Glo
measurementType: IC50 (µM)

compound: C[C@H]1CCN1c1nc(N2CC3(C[C@H]3CC(=O)O)C2)c2cc(Cl)sc2n1
numericReadout: 0.2
//
compound: C[C@H]1CCN1c1nc(N2CC3(CCC3C(=O)O)C2)c2cc(Cl)sc2n1 (some centres unmarked)
numericReadout: 0.48
//
compound: C[C@H]1CCN1c1nc(N2CC3(CC3C(=O)O)C2)c2ccsc2n1 (some centres unmarked)
numericReadout: 0.1
//
compound: C[C@H]1CCN1c1nc(N2C[C@@H]3[C@@H](CC(=O)O)[C@@H]3C2)nc2ncsc12
numericReadout: 0.65
//
compound: Cc1csc2nc(N3CC[C@@H]3C)nc(N3C[C@@H]4C(CC(=O)O)[C@@H]4C3)c12 (some centres unmarked)
numericReadout: 0.21

P = C[C@H]1CCN1c1nc(Nc2ccc(C(=O)O)c(C#N)c2)c2ccsc2n1
Q = C[C@H]1CCN1c1nc(NC2CC3(C2)CC3C(=O)O)c2cc(Cl)sc2n1 (some centres unmarked)
R = C[C@H]1CCN1c1nc(-c2ccc(CC(=O)O)c(F)c2)c2ccsc2n1
S = C[C@H]1CCN1c1nc(N2CC3(C[C@H]3C(=O)O)C2)c2ccsc2n1
T = C[C@H]1CCN1c1nc(N2CC3(C[C@H]3CC(=O)O)C2)c2ccsc2n1
Task: Order each entry by recorded IC50, climbing from the minimum. I would appreciate it if you listed the labels in the requested order.
Output: P, Q, S, R, T

1 = C[C@H]1CCN1c1nc(N2CC3(C[C@@H]3C(=O)O)C2)c2cccc(F)c2n1
2 = C[C@H]1CCN1c1nc(N2CC[C@H](CC(=O)O)C2)c2ccsc2n1
3 = C[C@H]1CCN1c1nc(N2CC3(CC3C(=O)O)C2)c2c(F)csc2n1 (some centres unmarked)
4 = C[C@H]1CCN1c1nc(Nc2cc(F)c(CC(=O)O)c(F)c2)c2ccsc2n1
5 = C[C@H]1CCN1c1nc(Nc2cc(F)c(C(=O)O)c(F)c2)c2ccsc2n1
Task: rank_up(items): orders items by reported IC50 in ascending numerical order. // ordering of labels required in reply
Output: 5, 4, 1, 3, 2
(5: 0.0067 µM, 4: 0.014 µM, 1: 0.052 µM, 3: 0.15 µM, 2: 0.24 µM)

a = C[C@H]1CCN1c1nc(-c2ccnc(CCC(=O)O)c2)c2ccsc2n1
b = C[C@H]1CCN1c1nc(Nc2ccc(CC(=O)O)cc2)c2ncsc2n1
Task: Out of a and b , name the one with the higher IC50. // output: label of the selected item
Output: b
(b: 0.11 µM, a: 0.071 µM)

A = C[C@H]1CCN1c1nc(N2C[C@@H]3[C@@H](CC(=O)O)[C@@H]3C2)c2cc(F)sc2n1
B = C[C@H]1CCN1c1nc(N2CC3(C[C@@H]3C(=O)O)C2)c2cc(Cl)sc2n1
C = C[C@H]1CCN1c1nc(N2CC3(C[C@H]3C(=O)O)C2)c2cc(Cl)sc2n1
D = C[C@H]1CCN1c1nc(-c2cccc(/C=C/C(=O)O)c2)c2ccsc2n1
Task: Could you please sort these 4 entries by IC50 from high to low? Dear reader, please state the labels in the requested order.
Output: C, A, B, D
(C: 0.081 µM, A: 0.05 µM, B: 0.03 µM, D: 0.02 µM)
